biological target: SLO; 15-lipoxygenase-1 (15-LOX-1) (Glycine max); construct: gene LOX1.1; SLO (abbreviation not spelt out); the introduction and aim speak of human 15-LO-1; experiment: linoleic acid hydroperoxide by MBTH/DMAB/hemoglobin colour reaction, […] nm; type: biochemical
Sequence (P08170 whole entry): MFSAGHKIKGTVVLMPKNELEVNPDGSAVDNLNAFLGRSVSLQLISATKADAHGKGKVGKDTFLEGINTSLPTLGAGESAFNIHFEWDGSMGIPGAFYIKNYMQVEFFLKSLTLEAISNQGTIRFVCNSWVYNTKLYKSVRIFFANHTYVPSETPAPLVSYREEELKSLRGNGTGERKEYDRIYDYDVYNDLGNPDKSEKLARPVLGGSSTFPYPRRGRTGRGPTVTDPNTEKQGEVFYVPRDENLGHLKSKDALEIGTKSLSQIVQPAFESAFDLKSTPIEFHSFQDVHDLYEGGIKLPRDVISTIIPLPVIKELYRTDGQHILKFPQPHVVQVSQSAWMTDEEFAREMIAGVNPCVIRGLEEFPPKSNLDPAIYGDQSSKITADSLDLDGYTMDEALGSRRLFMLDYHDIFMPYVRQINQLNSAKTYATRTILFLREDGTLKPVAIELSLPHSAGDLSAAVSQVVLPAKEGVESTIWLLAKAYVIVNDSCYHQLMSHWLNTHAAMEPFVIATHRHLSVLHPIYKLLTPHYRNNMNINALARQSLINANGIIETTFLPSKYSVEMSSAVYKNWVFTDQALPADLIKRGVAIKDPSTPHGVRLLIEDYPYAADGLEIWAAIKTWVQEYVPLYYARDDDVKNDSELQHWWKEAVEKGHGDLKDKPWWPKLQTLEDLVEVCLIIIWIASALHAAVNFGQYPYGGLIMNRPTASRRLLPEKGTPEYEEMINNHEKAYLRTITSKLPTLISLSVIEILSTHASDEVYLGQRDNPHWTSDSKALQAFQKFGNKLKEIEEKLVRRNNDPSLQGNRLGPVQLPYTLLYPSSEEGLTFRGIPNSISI
measurementKind: inhibition at 200 µM (%)

Check out these entries, answers already filled in.
Q. Would you mind telling me what inhibition at 200 µM value was observed for COc1cccc(C(=O)Nc2nnc(-c3ccccn3)s2)c1 [4k] ?
A. 26

Q. And for O=C(Nc1nnc(-c2ccccn2)s1)c1cccc(Cl)c1 [4b] ?
A. 8

Q. Further, for O=C(Nc1nnc(-c2ccccn2)s1)c1ccc(F)cc1 [4f] ?
A. 25

Q. Input O=C(Nc1nnc(-c2ccccn2)s1)c1ccccc1F [4d]
A. 17

Q. Queued: O=C(Nc1nnc(-c2ccccn2)s1)c1cccc(F)c1 [4e]
A. 13

Q. Next up: COc1ccc(C(=O)Nc2nnc(-c3ccccn3)s2)cc1 [4l]
A. 14

A: O=C(Nc1nnc(-c2ccccn2)s1)c1ccc(Cl)cc1 [4c]
B: O=C(Nc1nnc(-c2ccccn2)s1)c1ccccc1Cl [4a]
C: COc1ccccc1C(=O)Nc1nnc(-c2ccccn2)s1 [4j]
Q. Hey, can you sort those compounds up there by inhibition at 200 µM, smallest first? Form entry: ranked labels (order as requested).
A. B, A, C
(B: 8%, A: 12%, C: 28%)
